System: MS2 coat protein
Assay: apparent KD of MS2 coat protein; designed switch direction (-1 OFF switch, 1 ON switch): 1; higher = weaker reporter binding
Conditions: input ligand: microRNA oligo, concentration not stated
Below, each of the sequences is paired with its reported apparent KD of MS2 coat protein value.
readout.name: apparent KD of MS2 coat protein (nM)

>>> readout_number("GCCGCGUUUCGCGCCUACAUGAGGAUCACCCAUGUUUGUAGGCAGGAUAUCGUCCGCUCUGCGGGCGAGAAGGGCUGUUGUGGU [salish99_SSNG3_R04_024] (Eterna round: R96, puzzle: Same State NG 3)")
58.1
>>> readout_number("AUUACUAACAUAGGAUAUCAUGCGAAAAUUGCGUGAGAAGGGUGGACACUGUCUUUCUCGGAGUACAUGAGGAUCACCCAUGUG [SameState NG1 #68] (Eterna round: R96, puzzle: Same State NG 1)")
138
>>> readout_number("GGUCCAGCCUGAGCUGGACAAAAGCAUGUACAUGAGGAUCACCCAUGUCAUGUACAAGCUUUUUGCUCGUCAUAAAU [Mat - hsa-mir-208a - 96] (Eterna round: R96, puzzle: Sensor for hsa-mir-208a)")
16.3
>>> readout_number("AACAUGUGGUGUCACAUGAGGAUCACCCAUGUGGUAAAACCUGAGGAUAUAACGAACCAAAUCAAUUAGAAGGUAGGAUCACAA [AK SSNG3-V2-18] (Eterna round: R96, puzzle: Same State NG 3)")
46.5
>>> readout_number("GCUAGAAUAAAAGCCAACAUGAGGAUCACCCAUGUAUGUUGGCAGGAUAUCGUAUGCAAAGCAUACGAGAAGGGCCAUACUAGC [Mat - Same State NG 3 - JL Mod - D24] (Eterna round: R96, puzzle: Same State NG 3)")
96.7
>>> readout_number("AAUUUAAUACAUGAGGAUCACCCAUGUAAAUUAAUUAAGAUCUAGGAUAUCAGCUCGAAUAGAGCUGAGAAGGAGAUCACAUGU [SSNG3/19-B1] (Eterna round: R96, puzzle: Same State NG 3)")
13.8
>>> readout_number("GUGGUCAGACAUGAGGAUCACCCAUGUGGAAUAAAUAAGGUUUAGGAUAUGGAAUAUAGGAUAUACCAGAAGGAAAGGUUGGUG (Eterna round: R96, puzzle: Same State NG 3)")
75.4
>>> readout_number("UGAACCGUCACAGGAUAUCAUGCGAAAAUUGCGUGAGAAGGGUGGAUGUUGUGUUCAAAGAUGUACAUGAGGAUCACCCAUGUU [SameState NG1 #47] (Eterna round: R96, puzzle: Same State NG 1)")
85.7
>>> readout_number("CGUCGUUUGUUAGGAUAUCGCUAUACAUGAGGAUCACCCAUGUUUACCACGCUGGUUUUUCAUACCGAGAAGGAUUCUGAUGUU [salish99_SSNG02_r04_019] (Eterna round: R96, puzzle: Same State NG 2)")
31.6
